# target.entity: Human autotaxin enzyme (Homo sapiens, UniProt Q13822)
# Construct: purchased R&D System
# test.details: Evaluation of autotaxin inhibitor, 18:0 Lyso PC / choline assay (Test Example 2)
# Assay type: biochemical
# reported.conditions: autotaxin inhibition, IC50 class; read-out: Inhibitor activity
pIC50: −log10 of the molar value.
measurement.name: pIC50

COC(=O)Cn1c(CCCC(F)(F)F)nc(-c2ccc(C(F)(F)F)cc2)cc1=O [Compound I-0254] :: 7.00 to 8.00
CSc1nc(-c2ccc(Cl)cc2NC(C)=O)cc(=O)n1CC(=O)NC(C)(C)C [Compound I-0251] :: 7.00 to 8.00
CSc1nc(-c2ccc(Cl)cc2NC(C)=O)cc(=O)n1CC(=O)NCC(C)(C)O [Compound I-0250] :: 7.00 to 8.00

Next, consider the following molecule.
Please give the measured pIC50 for this molecule: COC(=O)Cn1c(CCCC(F)(F)F)nc(-c2ccc(C(F)(F)F)nc2)cc1=O [Compound I-0253]
6.00 to 7.00

----------
# target.entity: Human autotaxin enzyme (Homo sapiens, UniProt Q13822)
# Construct: purchased R&D System
# test.details: Evaluation of autotaxin inhibitor, 18:0 Lyso PC / choline assay (Test Example 2)
# Type: biochemical
# reported.conditions: human autotaxin enzyme, 18:0 Lyso PC substrate, choline assay, room temperature 2 hours; read-out: Inhibitor activity (IC50)
measurement.name: IC50

These recorded examples may help you get a feel for the data.
Cc1nc(-c2ccc(F)cc2NC(=O)C2CC2)cc(=O)n1CC(=O)NCC1(CO)COC1 :: 100 to 1000 nM
Cc1nc(-c2ccc(C#N)cc2NC(=O)C(C)(C)C)cc(=O)n1CC(=O)NCC1(CO)COC1 :: 10 to 100 nM
O=C1CC(CNC(=O)Cn2c(CCCC(F)(F)F)nc(-c3ccc(C(F)(F)F)cc3)cc2=O)CN1 (centres unmarked) :: 10 to 100 nM
COC(=O)Nc1cc(Cl)ccc1-c1cc(=O)n(CC(=O)NC2(C)CC2)c(C)n1 :: 10 to 100 nM
CCCCCc1nc(-c2ccc(Cl)cc2)cc(=O)n1Cc1ccccc1 :: ≥ 1000 nM

Please give the measured IC50 for this compound: `N#CC1(NC(=O)Cn2c(CCCC(F)(F)F)nc(-c3ccc(Cl)cc3F)cc2=O)CC1`
< 10 nM

Please give the measured IC50 for this compound: `CCCCCc1nc(-c2ccc(Cl)cc2)cc(=O)n1CC`
≥ 1000 nM

Please give the measured IC50 for this compound: `CC(C)(C)C(=O)Nc1cc(Cl)ccc1-c1cc(=O)n(Cc2cccc(C(=O)NCC(N)=O)c2)cn1`
100 to 1000 nM

----------
pIC50 for assorted molecules
# target.entity: Human autotaxin enzyme (Homo sapiens, UniProt Q13822)
# Construct: purchased R&D System
# test.details: Evaluation of autotaxin inhibitor, 18:0 Lyso PC / choline assay (Test Example 2)
# Assay type: biochemical
# reported.conditions: human autotaxin enzyme, 18:0 Lyso PC substrate, choline assay, room temperature 2 hours; read-out: Inhibitor activity (IC50)
# Experimental: Solution B containing 100 mM Tris-HCl buffer (pH7.5), 150 mM NaCl, 5 mM MgCl2, and 0.05% Triton X-100 was prepared. Human autotaxin enzyme (purchased from R&D System) was diluted with Solution B, and 2.5 μl of which was added to a solution of test compound in DMSO. […] The fluorescent dye Resorufin, which was produced by the reaction, was detected. The fluorescence was detected using ViewLux (PerkinElmer, Inc.) with a excitation wavelength of 531 nm and a fluorescence wavelength of 598 nm. […]
pIC50: −log10 of the molar value.

These recorded examples may help you get a feel for the data.
CCCCCc1nc(-c2ccc(Cl)cc2)cc(=O)n1CC(=O)NCCC(C)O (stereo not drawn) :: 6.00 to 7.00
O=C(c1cccc(Cn2c(CCCC(F)(F)F)nc(-c3ccc(Cl)cc3)cc2=O)c1)N1CCC(O)CC1 :: 7.00 to 8.00

Next, consider the following molecule.
Please provide the recorded pIC50 for CCCCCc1nc(-c2ccc(Cl)cc2)cc(=O)n1CC(=O)NC(C(=O)O)C(C)C (stereo not drawn) , tested on Human autotaxin enzyme (Homo sapiens, UniProt Q13822).
6.00 to 7.00

----------
# target.entity: Human autotaxin enzyme (Homo sapiens, UniProt Q13822)
# Construct: purchased R&D System
# test.details: Evaluation of autotaxin inhibitor, 18:0 Lyso PC / choline assay (Test Example 2)
# Assay type: biochemical
# reported.conditions: human autotaxin enzyme, 18:0 Lyso PC substrate, choline assay, room temperature 2 hours; read-out: Inhibitor activity (IC50)
measurement.name: IC50

These recorded examples may help you get a feel for the data.
CCCCCc1nc(-c2ccc(Cl)cc2)cc(=O)n1CC(=O)N1CCN(CC(=O)O)CC1 [Compound I-0048] :: < 10 nM
O=C(NCC(O)CO)c1cccc(Cn2c(CCCC(F)(F)F)nc(-c3ccc(Cl)cc3)cc2=O)c1 (centres unmarked) [Compound I-0173] :: 100 to 1000 nM
CCOCCc1nc(-c2ccc(Cl)cc2)cc(=O)n1CC(=O)NC1(C#N)CC1 [Compound I-0221] :: 10 to 100 nM
Cc1nc(-c2ccc(Cl)cc2NC(=O)C2CC2)cc(=O)n1CC(=O)NCc1c[nH]nn1 [Compound I-0431] :: 10 to 100 nM
N#Cc1ccc(-c2cc(=O)n(CC(=O)NC3(C#N)CC3)c(CCCC(F)(F)F)n2)cc1 [Compound I-0227] :: < 10 nM

Please give the measured IC50 for this compound: O=C(Cn1c(CCCC(F)(F)F)nc(-c2ccc(Cl)cc2)cc1=O)N1CCC(O)(CO)CC1 [Compound I-0130]
10 to 100 nM

Please give the measured IC50 for this compound: CC(=O)NCCNC(=O)c1cccc(Cn2c(CCCC(F)(F)F)nc(-c3ccc(Cl)cc3)cc2=O)c1 [Compound I-0156]
100 to 1000 nM

Please give the measured IC50 for this compound: O=C(NCc1ccnc(O)c1)c1cccc(Cn2c(CCCC(F)(F)F)nc(-c3ccc(Cl)cc3)cc2=O)c1 [Compound I-0192]
10 to 100 nM

----------
# target.entity: Human autotaxin enzyme (Homo sapiens)
# Construct: purchased R&D System
# test.details: Evaluation of autotaxin inhibitor, 18:0 Lyso PC / choline assay (Test Example 2)
# Assay type: biochemical
# reported.conditions: human autotaxin enzyme, 18:0 Lyso PC substrate, choline assay, room temperature 2 hours; read-out: Inhibitor activity (IC50)
measurement.name: IC50

N#CC1(NC(=O)Cn2c(COCC(F)(F)F)nc(-c3ccc(Cl)cc3)cc2=O)CC1 :: 10 to 100 nM
Cc1nc(-c2ccc(Cl)cc2NC(=O)C2CC2)cc(=O)n1CC(=O)NCC1CNC(=O)O1 (stereo not shown) :: 10 to 100 nM
O=C(NCCOCCO)c1cccc(Cn2c(CCCC(F)(F)F)nc(-c3ccc(Cl)cc3)cc2=O)c1 :: 100 to 1000 nM
COC(=O)Nc1cc(Cl)ccc1-c1cc(=O)n(CC(=O)N2CCC(O)CC2)c(C)n1 :: 10 to 100 nM
Cc1nc(-c2ccc(C#N)cc2NC(=O)C(C)(C)C)cc(=O)n1CC(=O)O :: ≥ 1000 nM
C[C@@H]1CN(C(=O)c2cccc(Cn3c(CCCC(F)(F)F)nc(-c4ccc(Cl)cc4)cc3=O)c2)C[C@H](C)O1 :: 100 to 1000 nM
O=C(Cn1c(CCCC(F)(F)F)nc(-c2ccc(C(F)(F)F)cc2)cc1=O)N1CCOC(CO)C1 (stereo not shown) :: 10 to 100 nM
COC(=O)Nc1cc(Cl)ccc1-c1cc(=O)n(CC(=O)OC(C)(C)C#N)c(C)n1 :: < 10 nM

Next, consider the following compound.
Please give the measured IC50 for this compound: `N#CC1(NC(=O)Cn2c(CCCC(F)(F)F)nc(-c3ccc(C(F)(F)F)nc3)cc2=O)CC1`
10 to 100 nM

----------
pIC50 for assorted molecules
# target.entity: Human autotaxin enzyme (Homo sapiens, UniProt Q13822)
# Construct: purchased R&D System
# test.details: Evaluation of autotaxin inhibitor, 18:0 Lyso PC / choline assay (Test Example 2)
# Format: biochemical
# reported.conditions: human autotaxin enzyme, 18:0 Lyso PC substrate, choline assay, room temperature 2 hours; read-out: Inhibitor activity (IC50)
pIC50: −log10 of the molar value.

These recorded examples may help you get a feel for the data.
COC(=O)Nc1cc(C#N)ccc1-c1cc(=O)n(CC(=O)OC(C)(C)C#N)c(C)n1 :: 7.00 to 8.00
NS(=O)(=O)CCNC(=O)Cn1c(CCCC(F)(F)F)nc(-c2ccc(Cl)cc2)cc1=O :: 7.00 to 8.00
Cc1nc(-c2ccc(Cl)cc2NC(=O)C2CC2)cc(=O)n1CC(=O)N1CC(C(C)(C)O)C1 :: 6.00 to 7.00
O=C(Cn1cnc(-c2ccc(Cl)cc2)cc1=O)NCCCNC(=O)c1ccc2[nH]nnc2c1 :: ≤ 6.00
O=C(Cn1c(CCCC(F)(F)F)nc(-c2ccc(Cl)cc2)cc1=O)NC(CO)(CO)CO :: 7.00 to 8.00

Please provide the recorded pIC50 for CCCCCc1nc(-c2ccc(Cl)cc2)cc(=O)n1CC(=O)N1CCC(C(=O)O)C1 (centres unmarked) , tested on Human autotaxin enzyme (Homo sapiens, UniProt Q13822).
≤ 6.00

Please provide the recorded pIC50 for `CCCCCc1nc(-c2ccc(Cl)cc2)cc(=O)n1CC(=O)OC` , tested on Human autotaxin enzyme (Homo sapiens, UniProt Q13822).
7.00 to 8.00

Please provide the recorded pIC50 for `CCCCCc1nc(-c2ccc(Cl)cc2)cc(=O)n1CC(=O)NCc1ccccc1C(=O)O` , tested on Human autotaxin enzyme (Homo sapiens, UniProt Q13822).
6.00 to 7.00

Please provide the recorded pIC50 for `CCCCCc1nc(-c2ccc(Cl)cc2)cc(=O)n1CC(=O)N1CC2(COC2)C1` , tested on Human autotaxin enzyme (Homo sapiens, UniProt Q13822).
≤ 6.00

Please provide the recorded pIC50 for `COC(=O)Nc1cc(Cl)ccc1-c1cc(=O)n(CC(=O)N2CC(F)C2)c(C)n1` , tested on Human autotaxin enzyme (Homo sapiens, UniProt Q13822).
6.00 to 7.00

Please provide the recorded pIC50 for `CCCCCc1nc(-c2ccc(Cl)cc2)cc(=O)n1CC(=O)NCCCc1ccccc1` , tested on Human autotaxin enzyme (Homo sapiens, UniProt Q13822).
6.00 to 7.00

Please provide the recorded pIC50 for `COC(=O)Nc1cc(Cl)ccc1-c1cc(=O)n(CC(=O)OC(C)(C)C)c(C)n1` , tested on Human autotaxin enzyme (Homo sapiens, UniProt Q13822).
> 8.00

Please provide the recorded pIC50 for `CCCCCc1nc(-c2ccc(Cl)cc2)cc(=O)n1CC(=O)N[C@H]1C[C@H](C(=O)O)C1` , tested on Human autotaxin enzyme (Homo sapiens, UniProt Q13822).
> 8.00

Please provide the recorded pIC50 for `O=C(Cn1c(CCCC(F)(F)F)nc(-c2ccc(Cl)cc2)cc1=O)NCC1(CO)CC1` , tested on Human autotaxin enzyme (Homo sapiens, UniProt Q13822).
7.00 to 8.00

Please provide the recorded pIC50 for `CCCCCc1nc(-c2ccc(Cl)cc2)cc(=O)n1CC(=O)N1CCC(C(=O)O)CC1` , tested on Human autotaxin enzyme (Homo sapiens, UniProt Q13822).
> 8.00

Please provide the recorded pIC50 for `CN(C)C(=O)CNC(=O)c1cccc(Cn2c(CCCC(F)(F)F)nc(-c3ccc(Cl)cc3)cc2=O)c1` , tested on Human autotaxin enzyme (Homo sapiens, UniProt Q13822).
7.00 to 8.00

Please provide the recorded pIC50 for `Cc1nc(-c2ccc(Cl)cc2NC(=O)C2CC2)cc(=O)n1CC(=O)NCC1(CO)CC1` , tested on Human autotaxin enzyme (Homo sapiens, UniProt Q13822).
7.00 to 8.00
